So I've got a bunch of molecules here, and I need their growth inhibition values.
Experiment: Restrictive medium S. cerevisiae growth inhibition, OD615, pilot screen of yeast lifespan reduction project, restrictive growth control (AID 706);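 also: modified DeaD lifespan yeast strain shifted to restrictive glucose medium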
Conditions: OD615, 48 h, at 10 µM, hits give high values
One number for each entry, in %.

Solved entries (count: 5):
Incoming: Could you share which growth inhibition value was measured for CCOc1cccc(C2c3c(oc4ccccc4c3=O)C(=O)N2c2ccccn2)c1 (stereo unspecified) ?
Outgoing: -9.72

Incoming: Could you share which growth inhibition value was measured for CC(C)c1nnc(NC(=O)CCN2C(=O)c3ccccc3C2=O)s1 ?
Outgoing: -0.03

Incoming: Could you share which growth inhibition value was measured for CC(=O)c1ccc(OCC(O)CN2CCCC(C)C2)cc1 (stereo unspecified) ?
Outgoing: -4.29

Incoming: Could you share which growth inhibition value was measured for CCCCn1c(=O)[nH]c2ccccc21 ?
Outgoing: -21.1

Incoming: Could you share which growth inhibition value was measured for O=C(Cn1nc(-c2ccc(Cl)cc2)ccc1=O)NCCN1CCOCC1 ?
Outgoing: -12.3

Next molecule, please.
Incoming: Could you share which growth inhibition value was measured for COc1ccc(OC)c(CCNC(=O)CN2C(=O)CC(C)(C)S(=O)(=O)c3ccccc32)c1 ?
Outgoing: -14.1

----------
So I've got a bunch of compounds here, and I need their viability values.
Assay: growth suppression of PTEN-deleted HCT116, pilot screen, cell-based, HCT116 clonal line, CellTiter-Glo (AID 824);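 also: 0% = 20 µM Hyamine control and 100% = vehicle cell control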
Details: 60 h, at 10 µM, hits give low values
Results filed as inconclusive are left out.
Numbers only, in %.

Solved entries (count: 3):
Incoming: Could you share which viability value was measured for CC12C(=O)N(c3ccccn3)C(=O)C1C1C=CC2C1 (stereo unspecified) ?
Outgoing: 92

Incoming: Could you share which viability value was measured for O=C(NCC1CCCO1)c1ccc2c(=O)n(CCc3ccccc3)c(=O)[nH]c2c1 (stereo unspecified) ?
Outgoing: 102

Incoming: Could you share which viability value was measured for CCOC(=O)c1c(CN(CC)CC)oc2cc(Br)c(O)cc12 ?
Outgoing: 81.6

Please supply viability for each of the following items, keeping them in order.
1. CCOCCCNC(=O)C(c1ccc(C)cc1)N1CCOCC1 (stereo unspecified)
2. Cn1c(NC(=O)CCc2ccccc2)cc(=O)n(C)c1=O

Outgoing:
102
96.9

----------
Test: inhibitors of the yeast RAM network, pilot screen, dse1pr::URA3 reporter, 5-FOA selection (AID 869);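 also: 0% = DMSO wells with no growth and 100% = 10 µM 1-NA-PP1 with full growth; RAM network block rescues cells from 5-FOA so hits raise OD615 growth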
Settings: S. cerevisiae dse1pr::URA3 5-FOA growth, OD615, 2 d; at 10 µM; hits give high values; strain carries analog-sensitive mutant Cbk1 kinase
READOUT KIND: inhibition (%)
One number for each entry, in %.

Incoming: Could you share which inhibition value was measured for O=c1oc2ccccc2n1Cc1ccccc1Cl ?
Outgoing: 1.56

Incoming: Could you share which inhibition value was measured for CN(c1ccccc1)S(=O)(=O)c1cccc(C(=O)N2CCN(c3ccccn3)CC2)c1 ?
Outgoing: -0.145

Incoming: Could you share which inhibition value was measured for CCOCCn1c(SCCc2ccccc2)nc2c1c(=O)[nH]c(=O)n2C ?
Outgoing: 1.69

Please supply inhibition for each of the following items, keeping them in order.
1. Cn1cnnc1SCC(=O)Nc1ccccc1
2. COc1cc(CN2CCN(CCOCCO)CC2)cc(OC)c1OC
3. O/N=C1/CCCSc2ccccc21

Outgoing:
1: -0.32; 2: 1.11; 3: 0.95

Please supply inhibition for each of the following items, keeping them in order.
1. CCOC(=O)c1ccc(NC(=O)C2CCN(S(=O)(=O)c3ccccc3)CC2)cc1
2. CCCCOC(=O)Nc1nc(CC(=O)OCC)cs1
3. CCN1CCN(C(=O)CSCc2nc(-c3ccc(OC)c(OC)c3)oc2C)CC1
4. O=C(NCCOC(=O)c1ccc(C(=O)OCCNC(=O)c2ccccc2)o1)c1ccccc1
5. C=CC(C)Sc1nc2c(c(=O)n(C)c(=O)n2C)n1Cc1ccccc1Cl (stereo not drawn)
6. Cc1ccccc1NC(=O)NCCN1C(=O)C2C3C=CC(C3)C2C1=O (stereo not drawn)
7. CN(CCNC(=O)Cn1c(=O)sc2ccccc21)Cc1ccccc1
8. COC(=O)c1cccc(NC(=O)C(C)N2C(=O)c3ccccc3C2=O)c1 (stereo not drawn)

Outgoing:
[1.47, -0.45, 0.475, 1.25, 0.785, 0.745, 1.27, 1.77]

Please supply inhibition for each of the following items, keeping them in order.
1. CCc1ccc(N2CCN(C(=O)c3ccc(OC)c(OC)c3)CC2)cc1
2. COc1ccccc1NC(=O)c1c(NC(=O)c2ccco2)sc2c1CCC2
3. CC(=O)NCCOc1c(C)cc(S(N)(=O)=O)cc1C
4. Cc1cc(NC(=O)CSc2cn(CCNC(=O)c3ccccc3)c3ccccc23)no1
5. COc1ccc(-n2c3c(cc(C(=O)Nc4ccc5c(c4)C(=O)NC5=O)c2=O)C(=O)CCC3)cc1

Outgoing:
[0.975, 2.31, 0.43, 3.04, 1.77]

Please supply inhibition for each of the following items, keeping them in order.
1. CCc1ccccc1NC(=O)c1cc2sccc2n1C
2. CCC(CO)Nc1ncnc2c1cnn2-c1ccc(OC)cc1 (stereo not drawn)
3. CC(C)(C)Nc1ncnc2c1cnn2-c1ccccc1

Outgoing:
0.28
2.01
1.31

Incoming: Could you share which inhibition value was measured for N#CCc1ccc(NS(=O)(=O)c2ccc(N3CCCC3=O)cc2)cc1 ?
Outgoing: 2.58
